Please go through the items and note down their IC50.
- tgt: Genome polyprotein (dengue virus type 2)
- Sequence (P29990 2492-3391 limits assumed): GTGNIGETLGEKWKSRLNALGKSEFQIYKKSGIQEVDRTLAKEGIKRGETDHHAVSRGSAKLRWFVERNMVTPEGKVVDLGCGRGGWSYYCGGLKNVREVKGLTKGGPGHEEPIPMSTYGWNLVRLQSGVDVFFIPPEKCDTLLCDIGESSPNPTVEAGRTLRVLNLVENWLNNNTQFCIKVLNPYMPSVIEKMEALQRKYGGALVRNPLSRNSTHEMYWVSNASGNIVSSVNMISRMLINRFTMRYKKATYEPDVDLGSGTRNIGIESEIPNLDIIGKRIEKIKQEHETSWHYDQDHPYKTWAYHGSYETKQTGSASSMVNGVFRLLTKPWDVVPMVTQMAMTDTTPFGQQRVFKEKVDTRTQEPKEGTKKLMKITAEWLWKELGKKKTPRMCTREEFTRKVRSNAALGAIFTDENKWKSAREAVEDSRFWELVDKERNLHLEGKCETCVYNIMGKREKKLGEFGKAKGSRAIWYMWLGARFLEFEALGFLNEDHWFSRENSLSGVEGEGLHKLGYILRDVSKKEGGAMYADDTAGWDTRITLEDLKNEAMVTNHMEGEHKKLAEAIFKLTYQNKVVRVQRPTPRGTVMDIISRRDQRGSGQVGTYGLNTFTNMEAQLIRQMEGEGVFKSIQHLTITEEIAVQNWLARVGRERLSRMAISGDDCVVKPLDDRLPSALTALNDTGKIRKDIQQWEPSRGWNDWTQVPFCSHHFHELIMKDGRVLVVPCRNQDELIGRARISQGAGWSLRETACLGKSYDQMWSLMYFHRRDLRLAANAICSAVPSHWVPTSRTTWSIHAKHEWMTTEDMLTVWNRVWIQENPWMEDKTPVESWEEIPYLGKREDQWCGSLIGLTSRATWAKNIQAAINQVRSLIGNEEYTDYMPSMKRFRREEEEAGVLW
- methodDescription: Dengue-2 NS5 methyltransferase inhibitors, primary screen, biochemical, confirmation dose response (AID 588689)
- Format: functional
Active and inactive are the calls of the source. No rule for the calls is given here.

Qu. Provide only the value of recorded IC50 for `COc1cc(/C=C2\SC(=S)N(NS(=O)(=O)c3ccc(C)cc3)C2=O)cc(OC)c1OC`
Ans. 37.4 µM (active)

Qu. Provide only the value of recorded IC50 for COc1ccccc1N(O)C1CC(=O)N(c2ccc(F)cc2)C1=O (stereo not given)
Ans. 62 µM (active)

Qu. Provide only the value of recorded IC50 for CCC(C)(C)C1CCc2c(sc(NC(=O)c3ccccc3C(=O)O)c2C#N)C1 (stereo not given)
Ans. 42.6 µM (active)

Qu. Provide only the value of recorded IC50 for `CSC(SC)=C(C#N)C(=O)c1ccccc1`
Ans. 84.6 µM (active)

Qu. Provide only the value of recorded IC50 for `COc1ccc2c(c1)-c1nc(/N=C/c3c(O)ccc4ccccc34)sc1CC2`
Ans. 6.25 µM (active)
